Values were extracted from the supplement of paper PMC10567573.

B1: DLC1 (parent)
chain: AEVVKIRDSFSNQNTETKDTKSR

- Variants of: B1
- test-protocol: protein stability index of a GFP-peptide fusion (GPS, HEK-293T) (PSI 1-6); higher = more stable;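 note: lentivirally expressed fusions sorted by FACS into six bins by GFP to DsRed ratio, PSI derived from sequencing read proportions per bin multiplied by bin number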
- measurement-context: c terminus: native
// label = fulfilled if protein stability index is not less than 3, otherwise not fulfilled

Previously resolved entries follow.
- S22W: fulfilled
- S11T: not fulfilled
- S11E: not fulfilled
- I6G: not fulfilled

Request: Entry I6L : is its protein stability index no less than 3?
Result: not fulfilled

Request: Entry V3G : is its protein stability index no less than 3?
Result: not fulfilled

Request: Entry R23M : is its protein stability index no less than 3?
Result: fulfilled

Request: Entry K21T : is its protein stability index no less than 3?
Result: fulfilled

Request: Entry I6P : is its protein stability index no less than 3?
Result: fulfilled

Request: Entry S9Q : is its protein stability index no less than 3?
Result: not fulfilled

Request: Entry I6K : is its protein stability index no less than 3?
Result: fulfilled

Request: Entry V4F : is its protein stability index no less than 3?
Result: not fulfilled

Request: Entry E16T : is its protein stability index no less than 3?
Result: not fulfilled

Request: Entry T15I : is its protein stability index no less than 3?
Result: not fulfilled

Request: Entry S9P : is its protein stability index no less than 3?
Result: not fulfilled

Request: Entry N12V : is its protein stability index no less than 3?
Result: not fulfilled

Request: Entry R23H : is its protein stability index no less than 3?
Result: fulfilled

Request: Entry N14E : is its protein stability index no less than 3?
Result: not fulfilled

Request: Entry E2M : is its protein stability index no less than 3?
Result: not fulfilled

Request: Entry F10R : is its protein stability index no less than 3?
Result: fulfilled

Request: Entry I6C : is its protein stability index no less than 3?
Result: not fulfilled
